The measured values listed here are drawn from PubChem BioAssay.

Test: E. coli acrAB mutant growth effects, primary screen, E. coli filamentation inducers, strain DRC39, OD650, 24 h (AID 1178);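 note: growth measured as culture turbidity by optical density at 650 nm; test concentration not given here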
Conditions: higher = more signal, called active from +8 up or from −8 down

Compound	z-score
CCOC(=O)[C@H](CC(C)C)NC(=O)CCC1CC(OC(=O)NCc2cccc3ccccc23)CC2(CCCC(COC(=O)NCCOc3ccccc3)O2)O1 (some centres not stated)	0.0446
Cc1cc2c(nc1C)CCCCN2CC(C)ON=C1[C@H]2CCn3c(=O)n(-c4ccccc4)c(=O)n3[C@H]2[C@H](O)[C@@H]2O[C@H]12 (some centres not stated)	0.588
CC=CC1=C(CO)C(=O)[C@@H]2O[C@@H]2C1=O	0.246
CCCNC(=O)OC[C@H]1O[C@H](CCON=C(C)CCN2CCc3nc(CC)c(CC)cc3C2)C=C[C@@H]1Oc1ccc(OC)cc1	-1.13
CC(CCN1CCCc2nc(C)c(C)cc21)=NO[C@@H](C)c1cc(-c2c(C)cc(C)cc2C)no1	0.898
CCOC(=O)[C@H](CC(C)C)NC(=O)CCC1CC(OC(=O)NCCc2ccc(F)cc2)CC2(CCCC(COC(=O)NCCC(C)C)O2)O1 (some centres not stated)	0.334
O=C(NN=C1C[C@@H](O)[C@@H](O)[C@@H]2[C@@H]3C(=O)N(C[C@@H]4CCCO4)C(=O)[C@@H]3CC[C@@H]12)OCc1ccccc1	-0.0573
